# TARGET_SYSTEM: TAK1-TAB1 fusion protein (Homo sapiens, UniProt O43318)
# Sequence (O43318 with tags, fused parts or gaps limits assumed): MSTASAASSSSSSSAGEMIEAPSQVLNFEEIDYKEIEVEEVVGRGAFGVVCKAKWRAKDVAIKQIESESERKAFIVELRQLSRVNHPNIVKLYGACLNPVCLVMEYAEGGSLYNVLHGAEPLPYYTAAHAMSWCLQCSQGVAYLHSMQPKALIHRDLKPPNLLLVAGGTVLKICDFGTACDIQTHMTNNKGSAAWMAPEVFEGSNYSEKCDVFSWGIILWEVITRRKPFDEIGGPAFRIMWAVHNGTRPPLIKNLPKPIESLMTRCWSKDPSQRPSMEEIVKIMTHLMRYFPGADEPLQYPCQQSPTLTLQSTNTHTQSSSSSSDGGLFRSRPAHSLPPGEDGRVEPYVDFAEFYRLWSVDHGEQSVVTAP
# METHOD_NOTES: In vitro TAK1 kinase assay (33P-ATP, casein substrate)
# PARTICULARS: semi-quantitative score, at least two independent experiments
pIC50: −log10 of the molar value.
MEASUREMENT_KIND: pIC50

Ask: pIC50 lookup needed for O=C(NCCN1CCCCC1)c1ccc(Nc2ccc(-c3ccc4c(c3)CNC4=O)n3ccnc23)cc1 , thanks.
Reply: 6.00 to 7.00

More entries:
Ask: pIC50 lookup needed for CN1CCN(c2ccc(Nc3ccc(-c4ccc(C(N)=O)cc4)n4ccnc34)cc2F)CC1 , thanks.
Reply: 6.00 to 7.00

Ask: pIC50 lookup needed for CCN1CCN(C(=O)c2ccc(Nc3ccc(-c4ccc5c(c4)CNC5=O)n4ccnc34)cc2)CC1 , thanks.
Reply: > 7.00

Ask: pIC50 lookup needed for O=C1NCc2cc(-c3ccc(Nc4ccc(-n5cncn5)cc4)c4nccn34)ccc21 , thanks.
Reply: 6.00 to 7.00

Ask: pIC50 lookup needed for O=c1cc(-c2ccc(Nc3ccc(N4CCN(C5CCC5)CC4)cc3)c3nccn23)cc[nH]1 , thanks.
Reply: 6.00 to 7.00

Ask: pIC50 lookup needed for O=C1NCc2cc(-c3ccc(Nc4ccc(C(=O)N5CCOCC5)cc4)c4nccn34)ccc21 , thanks.
Reply: 6.00 to 7.00

Ask: pIC50 lookup needed for O=C(NCCN1CCOCC1)c1ccc(Nc2ccc(-c3ccc4c(c3)CNC4=O)n3ccnc23)cc1 , thanks.
Reply: 6.00 to 7.00

Ask: pIC50 lookup needed for O=C1NCc2cc(-c3ccc(Nc4ccc(C(=O)N5CCC(N6CCCCC6)CC5)cc4)c4nccn34)ccc21 , thanks.
Reply: > 7.00

Ask: pIC50 lookup needed for CC(C)CCN1CCN(c2ccc(Nc3ccc(-c4cc[nH]c(=O)c4)n4ccnc34)cc2)CC1 , thanks.
Reply: 6.00 to 7.00

Ask: pIC50 lookup needed for CCN(C)CCN(CC)C(=O)c1ccc(Nc2ccc(-c3ccc4c(c3)CNC4=O)n3ccnc23)cc1 , thanks.
Reply: > 7.00

Ask: pIC50 lookup needed for CN1CCN(c2ccc(Nc3ccc(-c4cn[nH]c4)n4ccnc34)c(F)c2)CC1 , thanks.
Reply: 6.00 to 7.00

Ask: pIC50 lookup needed for O=c1cc(-c2ccc(Nc3ccc(N4CCOCC4)cc3)c3nccn23)cc[nH]1 , thanks.
Reply: 6.00 to 7.00

Ask: pIC50 lookup needed for Cc1n[nH]c(C)c1-c1ccc(Nc2ccc(N3CCOCC3)cc2)c2nccn12 , thanks.
Reply: < 5.52

Ask: pIC50 lookup needed for C[C@@H]1CN(c2ccc(Nc3ccc(-c4cc[nH]c(=O)c4)n4ccnc34)cc2F)C[C@H](C)N1C , thanks.
Reply: 6.00 to 7.00

###

compounds and their reported IC50
# TARGET_SYSTEM: TAK1-TAB1 fusion protein (Homo sapiens)
# METHOD_NOTES: In vitro TAK1 kinase assay (33P-ATP, casein substrate)
# PARTICULARS: semi-quantitative score, at least two independent experiments
# Description: For assessing TAK1 inhibition, active TAK1-TAB1 fusion protein was used from Upstate (Cat. No, 14-600). […] The assay is stopped 90 minutes after incubation at 30° C. by the addition of 25 μL phosphoric acid (150 mM). […] After 6 washes with 75 mM phosphoric acid, the bottom of the filter plates are sealed, and incorporated label is quantified after addition of 40 μL scintillation fluid using TopCount. […]

Ask: IC50 lookup needed for CN1CCN(c2ccc(Nc3ccc(-c4ccc(C(N)=O)cc4)n4ccnc34)cc2)CC1 , thanks.
Reply: 101 to 1000 nM

Ask: IC50 lookup needed for CC(C)N1CCN(c2ccc(Nc3ccc(-c4ccc5c(c4)CNC5=O)n4ccnc34)cc2Cl)CC1 , thanks.
Reply: 101 to 1000 nM

More entries:
Ask: IC50 lookup needed for O=c1cc(-c2ccc(Nc3ccc(N4CCN(C5CC5)CC4)cc3)c3nccn23)cc[nH]1 , thanks.
Reply: 1000 to 3000 nM

Ask: IC50 lookup needed for CCN(CC)CCNS(=O)(=O)c1ccc(Nc2ccc(-c3ccc4c(c3)CNC4=O)n3ccnc23)cc1 , thanks.
Reply: 101 to 1000 nM

Ask: IC50 lookup needed for O=c1cc(-c2ccc(Nc3ccc(N4CCCCC4)cc3)c3nccn23)cc[nH]1 , thanks.
Reply: 1000 to 3000 nM

Ask: IC50 lookup needed for CCC(C)N1CCN(C(=O)c2ccc(Nc3ccc(-c4ccc5c(c4)CNC5=O)n4ccnc34)cc2)CC1 (centres unmarked) , thanks.
Reply: 101 to 1000 nM

Ask: IC50 lookup needed for COc1cc(-c2ccc(Nc3ccc(N4CCN(C(C)C)CC4)cc3)c3nccn23)ccc1O , thanks.
Reply: 101 to 1000 nM

Ask: IC50 lookup needed for O=c1cc(-c2ccc(Nc3ccc(C4CCN(CCF)CC4)cc3)c3nccn23)cc[nH]1 , thanks.
Reply: 101 to 1000 nM

###

# TARGET_SYSTEM: TAK1-TAB1 fusion protein (Homo sapiens, UniProt O43318)
# METHOD_NOTES: In vitro TAK1 kinase assay (33P-ATP, casein substrate)
# PARTICULARS: semi-quantitative score, at least two independent experiments
pIC50: −log10 of the molar value.
MEASUREMENT_KIND: pIC50

Ask: pIC50 lookup needed for O=C(NCCCN1CCCC1)c1ccc(Nc2ccc(-c3ccc4c(c3)CNC4=O)n3ccnc23)cc1 [Compound 51] , thanks.
Reply: 6.00 to 7.00

Ask: pIC50 lookup needed for CS(=O)(=O)c1ccc(Nc2ccc(-c3ccc4c(c3)CNC4=O)n3ccnc23)cc1 [Compound 18] , thanks.
Reply: 6.00 to 7.00

Ask: pIC50 lookup needed for FC(F)CN1CCN(c2ccc(Nc3ccc(-c4cn[nH]c4)n4ccnc34)cc2)CC1 [Compound 109] , thanks.
Reply: 5.52 to 6.00

Ask: pIC50 lookup needed for CCN1CCN(c2ccc(Nc3ccc(-c4cc[nH]c(=O)c4)n4ccnc34)cc2)CC1 [Compound 91] , thanks.
Reply: 6.00 to 7.00

Ask: pIC50 lookup needed for O=c1cc(-c2ccc(Nc3ccc(N4CCC(F)CC4)cc3)c3nccn23)cc[nH]1 [Compound 116] , thanks.
Reply: 5.52 to 6.00

More entries:
Ask: pIC50 lookup needed for CC(C)N1CCN(c2ccc(Nc3ccc(-c4ccc(O)c(F)c4)n4ccnc34)cc2)CC1 [Compound 93] , thanks.
Reply: 5.52 to 6.00

Ask: pIC50 lookup needed for O=c1cc(-c2ccc(Nc3ccc(N4CCC(N5CCCCC5)CC4)cc3)c3nccn23)cc[nH]1 [Compound 120] , thanks.
Reply: 6.00 to 7.00

Ask: pIC50 lookup needed for O=C1NCc2cc(-c3ccc(Nc4ccc(-n5cccn5)cc4)c4nccn34)ccc21 [Compound 30] , thanks.
Reply: 5.52 to 6.00

Ask: pIC50 lookup needed for c1cn2c(-c3cn[nH]c3)ccc(Nc3ccc(N4CCSCC4)cc3)c2n1 [Compound 111] , thanks.
Reply: 5.52 to 6.00

Ask: pIC50 lookup needed for CC(C)N1CCN(c2ccc(Nc3ccc(-c4cn[nH]c4)n4ccnc34)cc2F)CC1 [Compound 5] , thanks.
Reply: 6.00 to 7.00

Ask: pIC50 lookup needed for CC(C)N1CCN(c2ccc(Nc3ccc(-c4cn[nH]c4)n4ccnc34)cc2)CC1 [Compound 6] , thanks.
Reply: 6.00 to 7.00

Ask: pIC50 lookup needed for c1cn2c(-c3cn[nH]c3)ccc(Nc3ccc(N4CCC(N5CCCCC5)CC4)cc3)c2n1 [Compound 119] , thanks.
Reply: 6.00 to 7.00

Ask: pIC50 lookup needed for CS(=O)(=O)c1ccc(Nc2ccc(-c3cc[nH]c(=O)c3)n3ccnc23)cc1 [Compound 64] , thanks.
Reply: 6.00 to 7.00

Ask: pIC50 lookup needed for NC(=O)c1ccc(-c2ccc(Nc3ccc(N4CCN(C5CCC5)CC4)cc3)c3nccn23)cc1 [Compound 78] , thanks.
Reply: 6.00 to 7.00

Ask: pIC50 lookup needed for CCCN1CCN(c2ccc(Nc3ccc(-c4ccc(C(N)=O)cc4)n4ccnc34)cc2)CC1 [Compound 76] , thanks.
Reply: 6.00 to 7.00

Ask: pIC50 lookup needed for C[C@@H]1CN(C)[C@@H](C)CN1c1ccc(Nc2ccc(-c3cc[nH]c(=O)c3)n3ccnc23)cc1 [Compound 99] , thanks.
Reply: 6.00 to 7.00

Ask: pIC50 lookup needed for CN(C)C1CCN(C(=O)c2ccc(Nc3ccc(-c4ccc5c(c4)CNC5=O)n4ccnc34)cc2)C1 (stereo not shown) [Compound 39] , thanks.
Reply: > 7.00

Ask: pIC50 lookup needed for O=C1NCc2cc(-c3ccc(Nc4ccc(S(=O)(=O)NC5CCNC5)cc4)c4nccn34)ccc21 (stereo not shown) [Compound 32] , thanks.
Reply: 6.00 to 7.00

Ask: pIC50 lookup needed for O=c1cc(-c2ccc(Nc3ccc(N4CCCC(F)(F)C4)cc3)c3nccn23)cc[nH]1 [Compound 118] , thanks.
Reply: < 5.52

Ask: pIC50 lookup needed for CC(C)N1CCN(c2ccc(Nc3ccc(-c4ccc5c(c4)CNC5=O)n4ccnc34)cc2F)CC1 [Compound 26] , thanks.
Reply: > 7.00
